Where do these numbers come from? They come from PubChem BioAssay.

Here, each record is paired with measured z-score data.
ASSAY NAME: hepatitis C replication reporter changes, two-sided – Huh7 cells, luciferase reporter, HCV replication inhibitor project, primary screen (AID 1109);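 note: huh7 hepatoma cells harbouring a luciferase neomycin HCV replicon reporter; luciferase luminescence as measure of HCV replicon replication; test concentration not given here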
ASSAY CONTEXT: Huh7 HCV replicon luciferase reporter, 48 h; higher = more signal
Reply briefly: the number, and no unit.

COMPOUND	MEASURED METRIC	REPORTED VALUE
CC(C)[Si]1(C(C)C)OCc2cc(C3CC3)nc(-c3ccc(Oc4ccccc4)cc3)c21	z-score	-2.24
O=C1OCCC=C[C@H]2OC34C=CCN(Cn5nnc6ccccc65)C(=O)[C@H]3N(CCCO)C(=O)[C@@H]4C12 (some centres undefined)	z-score	-0.642

I have this compound here, CCOc1cc(C(O)C2C=CC3C(=O)NC(=O)C3N2Nc2ccc(Cl)cc2Cl)ccc1O (centres undefined) , and I need its recorded z-score.
0.822

I have this compound here, "CCOC(=O)C[C@H]1[C@H](OC(=O)c2ccc(-c3ccccc3)cc2)[C@@H](NC(=O)CC(C)C)c2cc(OCCCO)ccc2N1C(=O)c1ccc2ccccc2n1" , and I need its recorded z-score.
-1.3

* * *

System: Chordin-like protein 2 (CHRDL2)
ASSAY NAME: compounds binding chordin-like 2 – biochemical, small-molecule microarray, 635 nm fluorescence, primary screen (AID 1126);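 note: printed compound slides probed with Chrdl2 protein at 4 µg/mL for 1 h at 4 C; score merges 667 nm emission intensity with signal to noise over three replicate slides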
ASSAY CONTEXT: fluorescence 635 nm, higher = more signal
Here, each record is paired with measured composite z-score data.

SMILES STRING	ASSAYED SYSTEM	MEASURED METRIC	REPORTED VALUE
COCC(=C=CC[C@H](O)c1ccc(OCCO)cc1)CCO	Chordin-like protein 2 (CHRDL2)	composite z-score	0.262
CCCC=C(CCC)[C@@H](NP(=O)(c1ccccc1)c1ccccc1)c1ccc(-c2ccccc2)cc1	Chordin-like protein 2 (CHRDL2)	composite z-score	-0.465

--- query ---
Param readout= composite z-score; system= Chordin-like protein 2 (CHRDL2); entry= "C=CCOC(=O)[C@@H]1[C@H]2C(=O)O[C@H](c3ccccc3)[C@H](c3ccccc3)N2[C@H](c2ccc(OCCOC(=O)[C@@H]3C[C@@H]4C(=O)N[C@@H](CCCC[N+](C)(C)C)C(=O)N4[C@@H]3c3ccc(O)cc3)cc2)[C@@]12C(=O)Nc1ccc(I)cc12" ; returns value.
0.841

* * *

ASSAY NAME: forskolin-driven CRE-LacZ activity in PC12 – cell-based, CRE-LacZ reporter, forskolin-stimulated, primary screen (AID 1146);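 note: PC12 cells with 6xCRE LacZ reporter stimulated by forskolin 10 µM; beta-galactosidase reporter signal reflecting CREB driven transcription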
ASSAY CONTEXT: luminescence, 4.5 h, higher = more signal, called active from +8 up or from −8 down
Use 0.9 as the dividing line for z-score, with the line itself on the YES side and lower values as NO.

COMPOUND	ANSWER LABEL
CCCCCC1=C2CNC(C)(C(=O)OC)C=C2C(C)C1=O (stereo not drawn)	YES

Read the next record carefully.
Reported z-score at or above 0.9? "COCC(=C=CC[C@H](O)c1ccccc1OCCO)C[C@H](O)c1ccccn1"
NO

* * *

Here, each record is paired with measured composite z-score data.
Tested on: Human papillomavirus type 1a E7 protein (residues 1-88)
ASSAY NAME: HPV1a E7 small-molecule binders, primary screen, biochemical, small-molecule microarray, residues 1-88, 635 nm (AID 1129)
ASSAY CONTEXT: small-molecule microarray binding, fluorescence 635 nm; higher = more signal
Reply briefly: the number, and no unit.

COMPOUND	composite z-score
COc1ccc(C#Cc2ccc3c(c2)[C@]2(C(=O)N3)[C@H](c3ccc(O)cc3)N3[C@H](c4ccccc4)[C@H](c4ccccc4)OC(=O)[C@H]3[C@@H]2C(=O)Nc2nc3ccccc3s2)cc1	1.25
CC1CC/C=C\[C@H]2OC34C=CCN(c5ccc6ccccc6c5)C(=O)[C@H]3N(CCCO)C(=O)[C@@H]4C2C(=O)O1 (stereo partly specified)	-0.453
CCCC=C(CCC)[C@@H](NC(=O)C(C)(C)C)c1ccc(C(=O)OC)cc1	1.01
Oc1ccc2cc[n+](Cc3cc4c(cc3Br)OCO4)cc2c1	-1.93

I have this compound here, "[N-]=[N+]=Nc1ccccc1C[C@@]1(C(=O)NCCN2CCOCC2)N=C(c2ccc(OCCCO)cc2)O[C@@H]1c1ccccc1N=[N+]=[N-]" , and I need its recorded composite z-score.
1.24

I have this compound here, "COc1ccc([C@H]2OC[C@@H]3C[C@H](Cc4ccccc4)C(=O)N32)cc1" , and I need its recorded composite z-score.
0.358

* * *

ASSAYED SYSTEM: Homeobox protein Hox-A13 (Mus musculus)
ASSAY NAME: disruptors of Hoxa13 oligonucleotide interaction – biochemical, fluorescence polarization, labeled oligonucleotide, primary screen (AID 1185)
ASSAY CONTEXT: Hoxa13:DNA binding, 15 min, called active from +8 up or from −8 down
Calls of active or inactive are those of the source.
Can you answer with just one of these options? active, inactive

Previously resolved entries follow.
MOLECULE	ASSAYED SYSTEM	ANSWER LABEL
C=CC[C@]1(C(=O)N2CCCCC2)N=C(c2ccc(OCCCO)cc2)O[C@H]1c1ccccc1CN=[N+]=[N-]	Homeobox protein Hox-A13 (Mus musculus)	inactive
CCCCC(=C=CC[C@H](O)c1ccc(OCCO)cc1)CCO	Homeobox protein Hox-A13 (Mus musculus)	inactive
CCCCNC(=O)c1ccc(C#CC(C)(C)C)c(OC(C)=O)c1	Homeobox protein Hox-A13 (Mus musculus)	inactive
O=C1NC(=O)C2C1C=CC(C(O)c1ccco1)N2Nc1ccc(Cl)cc1Cl (stereo unspecified)	Homeobox protein Hox-A13 (Mus musculus)	inactive
C=C(COC)/C(=C/C[C@H](OC(=O)c1ccncc1)c1ccccc1OCCO)c1cc(C(=O)OC)ccc1OC	Homeobox protein Hox-A13 (Mus musculus)	inactive
CCOC(=O)C[C@H]1[C@H](OC(=O)c2ccccc2-c2ccccc2)[C@@H](NC(=O)c2ccc3ccccc3c2)c2cc(OCCCO)ccc2N1C(=O)c1ccccc1	Homeobox protein Hox-A13 (Mus musculus)	inactive
CCOC(=O)C[C@H]1[C@H](OC(=O)c2ccc(C(=O)c3ccccc3)cc2)[C@@H](NC(=O)C2CCCCC2)c2cc(OCCCO)ccc2N1C(=O)c1ccc2ccccc2n1	Homeobox protein Hox-A13 (Mus musculus)	inactive
CN(C)C(=O)[C@]1(Cc2ccccc2CN=[N+]=[N-])N=C(c2ccc(OCCCO)cc2)O[C@@H]1c1ccccc1	Homeobox protein Hox-A13 (Mus musculus)	inactive
COc1cccc(C)c1NC(=O)O[C@H]1[C@H](OC(=O)Nc2ccc3c(c2)OCO3)[C@@H](OC(=O)Nc2ccc3c(c2)OCO3)[C@@H](OC)O[C@@H]1CO	Homeobox protein Hox-A13 (Mus musculus)	active
C=CCN1C(=O)[C@]2(CCS(=O)(=O)c3ccccc3)N=C(c3ccc(OCCCO)cc3)O[C@@H]2c2ccccc21	Homeobox protein Hox-A13 (Mus musculus)	inactive

For this molecule, state the assay outcome: CCN(CC)c1ccc(N2CC=CC34O[C@@H]5/C=C\CCCOC(=O)C5[C@H]3C(=O)N(C(C)CO)[C@@H]4C2=O)cc1 (stereo partly specified)
inactive

For this molecule, state the assay outcome: "Cc1ccc(F)cc1S(=O)(=O)N[C@@H]1CCN(Cc2ccc(Br)cc2)C1"
inactive

For this molecule, state the assay outcome: "COc1ccc(C#Cc2ccc3c(c2)[C@]2(C(=O)N3)[C@H](C(=O)O)[C@H]3C(=O)O[C@H](c4ccccc4)[C@H](c4ccccc4)N3[C@@H]2c2ccc(O)cc2)cc1"
inactive

For this molecule, state the assay outcome: "C=CCN1C(=O)[C@]2(CCC(=O)OC(C)(C)C)N=C(c3ccc(OCCCO)cc3)O[C@@H]2c2ccccc21"
inactive

For this molecule, state the assay outcome: "CC(C)NC(=O)[C@@]1(c2ccc([N+](=O)[O-])cc2)CC(=O)N(C2CCCCC2)[C@@H]1c1ccc(CO)cc1"
inactive

For this molecule, state the assay outcome: COC(=O)C1(CC(C)C)C=C2C(=C(c3ccccc3)C(=O)C2C)CN1 (stereo unspecified)
inactive

For this molecule, state the assay outcome: CC1CC/C=C\[C@H]2OC34C=CCN(C(C)C)C(=O)[C@H]3N(CCO)C(=O)[C@@H]4C2C(=O)O1 (stereo partly specified)
inactive

For this molecule, state the assay outcome: "O=C1N(CCS(=O)(=O)c2ccccc2)c2ccccc2[C@H]2OC(c3ccc(OCCCO)cc3)=N[C@@]12Cc1ccccc1"
inactive

For this molecule, state the assay outcome: "C=C(COC)C(=O)CC[C@@H](OC(C)=O)c1cccc(OCCO)c1"
inactive

For this molecule, state the assay outcome: "[N-]=[N+]=Nc1ccccc1C[C@@]1(C(=O)NCCN2CCOCC2)N=C(c2ccc(OCCCO)cc2)O[C@@H]1c1ccccc1N=[N+]=[N-]"
inactive

For this molecule, state the assay outcome: CC1CC/C=C\[C@H]2OC34C=CCN(Cc5ccccc5)C(=O)[C@H]3N(C(CO)C(C)C)C(=O)[C@@H]4C2C(=O)O1 (stereo partly specified)
inactive

For this molecule, state the assay outcome: "C=CC[C@@]1(C(=O)NCCCOC)N=C(c2ccc(OCCCO)cc2)O[C@@H]1c1ccccc1"
inactive
